Origin of values: patent US8097624B2

Assay: pKa determination by potentiometric or spectrophotometric titration
Type: physicochemical
Settings: titration in 0.1 M NaCl at 22° C.
Protocol: The pKa values of ligands were determined by potentiometric titration when a ligand concentration greater than 1×10^−2 M in water could be prepared. […] The solution was then titrated against 1.000 N NaOH at 22° C. to reach pH 11.8. For each addition of base, the solution was allowed to equilibrate until a constant pH reading was reached. The volume of the base added and the pH reading were recorded for each measurement. […]
Structures can show the parent of a compound that is named as a salt.
readout type: pKas (higher value, phenolic C3 OH)

Cc1cc(=O)c(O)c(C(=O)NC2CC2)n1C1CC1
8.6
Cc1c(O)c(=O)ccn1C [deferiprone, 1,2-dimethyl-3-hydroxy-4-pyridinone, reference compound]
9.64
Cc1cc(=O)c(O)c(C(=O)NC2CCCCC2)n1C
8.7
Cc1cc(=O)c(O)c(C(=O)NC2CCCC2)n1C
8.7
Cc1cc(=O)c(O)c(C(=O)NC2CCC2)n1C
8.6
CNC(=O)c1c(O)c(=O)cc(C)n1C [CP502, hydrochloride, reference compound]
8.5
